experiment_notes: Quantitative High-Throughput drug screen in 47 multiple myeloma cell lines against the NCATS MIPE library collection: VP6_DJ cell viability assay (AID 1919867); note: nearly all actives have a fitted effect of over 40% in size
condition_label: ATP luminescence, 48 h; series mostly up to 45.8 µM
Inconclusive results are not listed. Activity calls are given as the source filed them. Calls come from the whole dose curve; as a rule, active = well fitted cell-killing curve with a large enough effect; inconclusive = small, poorly fitted or top-dose-only effect, or effect the other way; inactive = no such curve, though single readings can be large or run the other way.
Parameter call: string, one of active, inactive

Example entries begin here.
{"columns": ["mol", "class_assignment"],
 "data": [
  ["C=C(C)[C@@H]1CC[C@]2(C)CC[C@]3(C)[C@H](CC[C@@H]4[C@@]5(C)CC[C@H](O)C(C)(C)[C@H]5CC[C@]43C)[C@@H]12", "inactive"],
  ["CC(C=CC(=O)NO)=C[C@@H](C)C(=O)c1ccc(N(C)C)cc1", "active"]
]}

input: Assay outcome for CCCCCCCCCCCCCCCC(=O)OC[C@@H](NC(=O)C(Cl)Cl)[C@H](O)c1ccc([N+](=O)[O-])cc1 : what was it?
output: inactive

input: Assay outcome for CC(C)(N)c1ccc(-c2nc3ccccc3nc2-c2ccccc2)cc1 : what was it?
output: active

* * *

experiment_notes: Quantitative High-Throughput drug screen in 47 multiple myeloma cell lines against the NCATS MIPE library collection: KMS28BM_JCRB cell viability assay (AID 1919874); note: nearly all actives have a fitted effect of over 35% in size
condition_label: CellTiter-Glo ATP, 48 h; series mostly up to 45.8 µM
Results filed as inconclusive are left out. Active and inactive are the calls of the source. The call rests on the fitted dose curve; in most records, active means well fitted cell-killing curve with a large enough effect; inconclusive means small, poorly fitted or top-dose-only effect, or effect the other way; inactive means no such curve, though single readings can be large or run the other way.
Parameter call: string, one of active, inactive

Example entries begin here.
{"columns": ["compound", "class_assignment"],
 "data": [
  ["C=C1C[C@@]2(O)O[C@@]3(C[C@H]2C(C)C)[C@H](C)CC[C@H]13", "inactive"],
  ["CC(C=CC(=O)NO)=C[C@@H](C)C(=O)c1ccc(N(C)C)cc1", "active"],
  ["Cn1cnc2c(F)c(Nc3ccc(Br)cc3F)c(C(=O)NOCCO)cc21", "inactive"],
  ["CC(=O)N[C@H]1[C@@H]([C@H](O)[C@H](O)CO)OC(C(=O)O)=C[C@@H]1N=C(N)N", "inactive"],
  ["C=CC(=O)Nc1cc(NC(=O)c2ccc(C)c(NC(=O)c3ccno3)c2)cc(C(F)(F)F)c1", "active"]
]}

input: Assay outcome for N#CC(=C(N)Sc1ccc(N)cc1)c1ccccc1C(F)(F)F : what was it?
output: inactive

input: Assay outcome for C=C[C@@H]1CN2CCC1C[C@H]2[C@H](O)c1ccnc2ccc(OC)cc12 (stereo not given in full) : what was it?
output: inactive

input: Assay outcome for CCc1c(O)cc(O)c(C(=O)c2ccc(OCCN3CCOCC3)c(OC)c2)c1CC(=O)N(CCOC)CCOC : what was it?
output: active

input: Assay outcome for CC(=O)NC(CS)C(=O)O (stereo not given) : what was it?
output: inactive

input: Assay outcome for CC(=CC(=O)Nc1ccccc1C(=O)O)c1ccc2ccccc2c1 : what was it?
output: inactive

* * *

experiment_notes: Quantitative High-Throughput drug screen in 47 multiple myeloma cell lines against the NCATS MIPE library collection: KMS12PE_JCRB cell viability assay (AID 1918972); note: nearly all actives have a fitted effect of over 30% in size
condition_label: KMS12PE myeloma viability, CellTiter-Glo ATP, 48 h; series mostly up to 45.8 µM
Results filed as inconclusive are left out. Activity calls are given as the source filed them. Calls follow the shape of the dose curve; as a rule, active = well fitted cell-killing curve with a large enough effect; inconclusive = small, poorly fitted or top-dose-only effect, or effect the other way; inactive = no such curve, though single readings can be large or run the other way.
Parameter call: string, one of t = active, f = inactive

Example entries begin here.
{"columns": ["molecule", "class_assignment"],
 "data": [
  ["CC1(C)[C@H](O[C@H]2O[C@H](C(=O)O)[C@@H](O)[C@H](O)[C@H]2O[C@@H]2O[C@H](C(=O)O)[C@@H](O)[C@H](O)[C@H]2O)CC[C@@]2(C)[C@H]1CC[C@]1(C)[C@H]2C(=O)C=C2[C@H]3C[C@@](C)(C(=O)O)CC[C@]3(C)CC[C@]21C", "f"],
  ["CC[C@]12C=CCN3CC[C@@]4(c5cc([C@@]6(C(=O)OC)C[C@H]7C[C@@H](C(C)(F)F)CN(Cc8c6[nH]c6ccccc86)C7)c(OC)cc5N(C)[C@H]4[C@@](O)(C(=O)OC)[C@H]1OC(C)=O)[C@@H]32", "t"],
  ["COc1cc([C@@H]2c3cc4c(cc3[C@H](O)[C@H]3COC(=O)[C@@H]23)OCO4)cc(OC)c1OC", "t"],
  ["Oc1cc(-c2nc(-c3ccccc3)[nH]c2-c2ccncc2)ccc1Cl", "t"],
  ["C[C@H](NCc1ccc(OCc2cccc(F)c2)cc1)C(N)=O", "t"],
  ["CCc1nc(-c2cccc(C)c2)c(-c2ccnc(NC(=O)c3ccccc3)c2)s1", "t"],
  ["O=C(O)C[C@H](O)C[C@H](O)C=Cc1c(C2CC2)nc2ccccc2c1-c1ccc(F)cc1", "t"],
  ["CCOc1cc2ncc(C#N)c(Nc3ccc(OCc4ccccn4)c(Cl)c3)c2cc1NC(=O)C=CCN(C)C", "t"],
  ["O=C1c2cccc(O)c2C(=O)c2c(O)cc(CO)cc21", "f"],
  ["CC(=O)N[C@@H]1[C@H](O[C@@H]2c3ccc(c(Cl)c3)Oc3cc4cc(c3O[C@H]3O[C@H](CO)[C@@H](O)[C@H](O)[C@H]3NC(=O)CCCCCCCC(C)C)Oc3ccc(cc3Cl)C[C@H]3NC(=O)[C@H](N)c5ccc(O)c(c5)Oc5cc(O)cc(c5)[C@H](NC3=O)C(=O)N[C@H]4C(=O)N[C@H]3C(=O)N[C@@H]2C(=O)N[C@@H](C(=O)O)c2cc(O)cc(O[C@H]4O[C@H](CO)[C@@H](O)[C@H](O)[C@H]4O)c2-c2cc3ccc2O)O[C@H](CO)[C@@H](O)[C@@H]1O", "f"]
]}

input: Assay outcome for Cn1cc(CNCC2CCN(c3ncc(C(=O)NO)cn3)CC2)c2ccccc21 : what was it?
output: t

input: Assay outcome for CCC(C(=O)O)C1CCC(C)C(C(C)C(O)C(C)C(=O)C(CC)C2OC3(C=CC(O)[C@@]4(CC[C@](C)(C5CC[C@@](O)(CC)C(C)O5)O4)O3)C(C)CC2C)O1 (stereo partly drawn) : what was it?
output: t

input: Assay outcome for CN(C)CC(=O)N1CCC(c2ccc(NC(=O)c3ncc(C#N)[nH]3)c(C3=CCCCC3)c2)CC1 : what was it?
output: t

* * *

experiment_notes: Quantitative High-Throughput drug screen in 47 multiple myeloma cell lines against the NCATS MIPE library collection: KMS20_JCRB cell viability assay (AID 1918973); note: nearly all actives have a fitted effect of over 45% in size
condition_label: CellTiter-Glo ATP, 48 h; series mostly up to 45.8 µM
Records with an inconclusive call do not appear. Activity calls are given as the source filed them. Calls come from the whole dose curve; as a rule, active = well fitted cell-killing curve with a large enough effect; inconclusive = small, poorly fitted or top-dose-only effect, or effect the other way; inactive = no such curve, though single readings can be large or run the other way.
Parameter call: string, one of y = active, n = inactive

{"columns": ["compound", "class_assignment"],
 "data": [
  ["CCCc1nc(C(C)(C)O)c(C(=O)O)n1Cc1ccc(-c2ccccc2-c2nn[nH]n2)cc1", "n"],
  ["CN(C)c1ccc2cc(C(=O)N[C@@H](CCCN=C(N)CCl)C(=O)NCc3ccccc3)ccc2c1", "y"],
  ["C[C@]12CC[C@@H]3c4ccc(O)cc4CC[C@H]3[C@H]1CC[C@H]2O", "y"],
  ["CC(C)NC[C@@H](C(=O)N1CCN(c2ncnc3c2[C@H](C)C[C@H]3O)CC1)c1ccc(Cl)cc1", "y"],
  ["CC(C)C[C@H](NC(=O)CNC(=O)c1cc(Cl)ccc1Cl)B1OC(=O)CC(CC(=O)O)(C(=O)O)O1 (stereo not given in full)", "y"],
  ["O=C(c1ccc(F)cc1)N1CCC[C@H](c2nc(-c3ccc(F)cc3)no2)C1", "n"],
  ["CCOc1cc2ncc(C#N)c(Nc3ccc(OCc4ccccn4)c(Cl)c3)c2cc1NC(=O)C=CCN(C)C", "y"],
  ["N#CNC(=NCCCCCCOc1ccc(Cl)cc1)Nc1ccncc1", "y"],
  ["CC(C)(N)c1ccc(-c2nc3ccccc3nc2-c2ccccc2)cc1", "y"]
]}

Consider now this further compound.
input: Assay outcome for C=CC(=O)Nc1cccc(Nc2nc(NC3CCC(N(C)C)CC3)nc3c2ncn3C(C)C)c1 (stereo not given) : what was it?
output: y

* * *

experiment_notes: Quantitative High-Throughput drug screen in 47 multiple myeloma cell lines against the NCATS MIPE library collection: KMS12PE_JCRB cell viability assay (AID 1918972); note: nearly all actives have a fitted effect of over 30% in size
condition_label: KMS12PE myeloma viability, CellTiter-Glo ATP, 48 h; series mostly up to 45.8 µM
Results filed as inconclusive are left out. Calls of active or inactive are those of the source. The call rests on the fitted dose curve; in most records, active means well fitted cell-killing curve with a large enough effect; inconclusive means small, poorly fitted or top-dose-only effect, or effect the other way; inactive means no such curve, though single readings can be large or run the other way.
Parameter call: string, one of active, inactive

{"columns": ["mol", "class_assignment"],
 "data": [
  ["O=c1ccn([C@@H]2O[C@H](CO)[C@H](O)[C@@H]2F)c(=O)[nH]1", "inactive"],
  ["COc1cc(C(=O)NC2CCN(C)CC2)ccc1Nc1ncc2c(n1)N(C1CCCC1)CCC(=O)N2C(C)C", "active"],
  ["COC(=O)[C@@H]1[C@H]2C[C@@H]3c4[nH]c5ccccc5c4CCN3C[C@@H]2CC[C@@H]1O", "inactive"]
]}

input: Assay outcome for O=C1NCCc2[nH]c(-c3ccncc3)cc21 : what was it?
output: active

input: Assay outcome for COc1cc2c(Nc3ccc(Cl)c(Cl)c3F)ncnc2cc1OCC1C[C@@H]2CN(C)C[C@H]2C1 : what was it?
output: active
